Exercise: state measured IC50 for each of the compounds provided.
Biological target: NF-κB p65 (Homo sapiens, UniProt Q04206)
Construct: purchased Active Motif
Sequence (Q04206 whole entry): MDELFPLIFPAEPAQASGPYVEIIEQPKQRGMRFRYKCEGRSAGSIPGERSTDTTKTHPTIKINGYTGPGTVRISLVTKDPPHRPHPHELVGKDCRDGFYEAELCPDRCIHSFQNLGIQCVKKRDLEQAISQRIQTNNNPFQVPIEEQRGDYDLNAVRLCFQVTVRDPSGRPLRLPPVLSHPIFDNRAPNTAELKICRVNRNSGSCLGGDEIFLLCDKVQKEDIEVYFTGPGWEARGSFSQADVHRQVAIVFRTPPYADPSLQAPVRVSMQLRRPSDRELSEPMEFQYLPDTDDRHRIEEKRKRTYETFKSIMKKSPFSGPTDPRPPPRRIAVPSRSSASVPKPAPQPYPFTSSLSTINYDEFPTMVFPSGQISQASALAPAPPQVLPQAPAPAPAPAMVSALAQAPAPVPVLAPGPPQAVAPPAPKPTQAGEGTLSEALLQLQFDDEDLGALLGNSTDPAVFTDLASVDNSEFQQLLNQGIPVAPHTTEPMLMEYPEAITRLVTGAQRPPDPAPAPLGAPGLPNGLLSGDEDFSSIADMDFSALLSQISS
Assay: TransAM NF-κB Family DNA Binding ELISA, p65
Settings: binding to NF-κB consensus oligonucleotide; read-out: p65 binding IC50
Give bare numbers, in µM.

Worked examples, 5 compounds total:
CCCC(C)C(=O)Oc1ccccc1C(=O)NC1=CC(=O)C2OC2C1O (racemic) [Example 4] :: 149
O=C(Nc1ccccc1)OC1C(NC(=O)c2ccccc2O)=CC(=O)C2OC21 (racemic) [Example 11] :: 7.3
CC(C)(C)CC(=O)Oc1ccccc1C(=O)NC1=CC(=O)C2OC2C1O (racemic) [Example 6] :: 67
CC(C)(C)CC(=O)Oc1ccccc1C(=O)NC1=CC(=O)C2OC2C1OC(=O)CC(C)(C)C (racemic) [Example 9] :: 116
CC(C)OC(=O)OC1C(NC(=O)c2ccccc2O)=CC(=O)C2OC21 (racemic) [Example 8] :: 336

Please look at the items below and tell me IC50 for each one, in order.
1. CC(C)CC(=O)Oc1ccccc1C(=O)NC1=CC(=O)C2OC2C1O (racemic) [Example 1]
2. O=C(CC1CCCCC1)Oc1ccccc1C(=O)NC1=CC(=O)C2OC2C1O (racemic) [Example 3]

Ans:
1. 214
2. 93

----------
Target: NF-κB p65 (Homo sapiens, UniProt Q04206)
Construct: purchased Active Motif
Assay: TransAM NF-κB Family DNA Binding ELISA, p65
quantity.measured: IC50 (µM)
Numbers only, in µM.

Q: Please list IC50 recorded for the molecule CCOP(=O)(OCC)Oc1ccccc1C(=O)NC1=CC(=O)C2OC2C1O (racemic)
Ans: 59

----------
Target: c-Rel (Homo sapiens, UniProt Q04864)
Sequence (Q04864 whole entry): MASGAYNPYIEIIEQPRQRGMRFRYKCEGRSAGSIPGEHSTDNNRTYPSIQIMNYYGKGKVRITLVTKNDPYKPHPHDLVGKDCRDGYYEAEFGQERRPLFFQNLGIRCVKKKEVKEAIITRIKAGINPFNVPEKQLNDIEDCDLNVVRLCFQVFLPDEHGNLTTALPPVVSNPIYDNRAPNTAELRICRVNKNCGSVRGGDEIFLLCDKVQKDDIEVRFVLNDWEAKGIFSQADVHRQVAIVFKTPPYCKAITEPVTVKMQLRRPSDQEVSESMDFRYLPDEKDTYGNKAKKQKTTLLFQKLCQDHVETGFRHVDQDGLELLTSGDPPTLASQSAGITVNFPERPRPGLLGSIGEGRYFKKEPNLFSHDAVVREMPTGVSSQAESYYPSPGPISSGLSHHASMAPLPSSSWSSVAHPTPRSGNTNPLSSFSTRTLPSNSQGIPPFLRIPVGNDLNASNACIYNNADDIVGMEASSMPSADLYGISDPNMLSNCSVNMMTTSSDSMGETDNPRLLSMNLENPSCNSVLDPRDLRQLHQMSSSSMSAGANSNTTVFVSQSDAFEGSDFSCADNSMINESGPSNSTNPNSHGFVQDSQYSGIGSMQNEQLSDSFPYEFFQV
Assay: TransAM NF-κB Family DNA Binding ELISA, c-Rel
Assign class by inhibition at 5 µM: not lower than 2% means met; lower than 2% means not met.

Completed entries (count: 3):
CC(C)OC(=O)Oc1ccccc1C(=O)NC1=CC(=O)C2OC2C1OC(=O)OC(C)C (racemic) :: not met
CC(C)OC(=O)Oc1ccccc1C(=O)NC1=CC(=O)C2OC2C1O (racemic) :: met
CC(C)(C)CC(=O)Oc1ccccc1C(=O)NC1=CC(=O)C2OC2C1O (racemic) :: met

We now examine a further compound.
Q: Reported inhibition at 5 µM reaches at least 2% for CC(C)CC(=O)Oc1ccccc1C(=O)NC1=CC(=O)C2OC2C1O (racemic) ?
Ans: not met

----------
Exercise: state measured inhibition at 5 µM for each of the molecules provided.
Biological target: UniProtKB Q01201
Sequence (Q01201 whole entry): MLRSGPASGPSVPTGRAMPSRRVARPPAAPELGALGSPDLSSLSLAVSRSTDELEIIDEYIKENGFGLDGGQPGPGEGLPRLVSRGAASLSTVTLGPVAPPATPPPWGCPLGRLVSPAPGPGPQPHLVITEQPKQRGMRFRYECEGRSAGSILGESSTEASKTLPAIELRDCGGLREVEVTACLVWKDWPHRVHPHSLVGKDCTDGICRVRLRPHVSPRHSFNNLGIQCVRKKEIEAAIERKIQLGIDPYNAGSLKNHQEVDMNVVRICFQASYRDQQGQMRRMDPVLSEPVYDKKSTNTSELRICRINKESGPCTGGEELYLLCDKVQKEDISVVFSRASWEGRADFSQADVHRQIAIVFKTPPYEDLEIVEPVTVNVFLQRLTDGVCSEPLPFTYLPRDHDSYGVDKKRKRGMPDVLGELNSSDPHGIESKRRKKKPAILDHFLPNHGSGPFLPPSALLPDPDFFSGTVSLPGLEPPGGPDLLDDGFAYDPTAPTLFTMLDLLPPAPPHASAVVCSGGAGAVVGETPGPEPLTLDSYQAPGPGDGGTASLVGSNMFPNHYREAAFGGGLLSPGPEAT
Experiment: TransAM NF-κB Family DNA Binding ELISA, RelB
One number for each entry, in %.

Worked examples, 3 molecules total:
CCCCC(CC)C(=O)Oc1ccccc1C(=O)NC1=CC(=O)C2OC2C1O (racemic) [Example 5] :: 5
CCCC(C)C(=O)Oc1ccccc1C(=O)NC1=CC(=O)C2OC2C1O (racemic) [Example 4] :: 5
CC(C)(C)CC(=O)Oc1ccccc1C(=O)NC1=CC(=O)C2OC2C1O (racemic) [Example 6] :: 3

# input for lookup
Q: Please list inhibition at 5 µM recorded for the molecule CC(C)OC(=O)Oc1ccccc1C(=O)NC1=CC(=O)C2OC2C1O (racemic) [Example 7]
Ans: 0

----------
Exercise: state measured pIC50 for each of the compounds provided.
Target: NF-κB p65 (Homo sapiens, UniProt Q04206)
Construct: purchased Active Motif
Assay: TransAM NF-κB Family DNA Binding ELISA, p65
Conditions: binding to NF-κB consensus oligonucleotide; read-out: p65 binding IC50
pIC50: −log10 of the molar value.

Worked examples, 3 compounds total:
CCCCC(CC)C(=O)Oc1ccccc1C(=O)NC1=CC(=O)C2OC2C1O (racemic) :: < 3.37
CC(C)OC(=O)Oc1ccccc1C(=O)NC1=CC(=O)C2OC2C1O (racemic) :: < 3.32
CC(C)OC(=O)Oc1ccccc1C(=O)NC1=CC(=O)C2OC2C1OC(=O)OC(C)C (racemic) :: < 3.42

# input for lookup
Q: Please list pIC50 recorded for the compound O=C(NC1=CC(=O)C2OC2C1O)c1ccccc1OP(=O)(OCc1ccccc1)OCc1ccccc1 (racemic)
Ans: < 3.49
